Target: Left-right determination factor 2 (Homo sapiens) (UniProt O00292)
Sequence (O00292 whole entry, looked up): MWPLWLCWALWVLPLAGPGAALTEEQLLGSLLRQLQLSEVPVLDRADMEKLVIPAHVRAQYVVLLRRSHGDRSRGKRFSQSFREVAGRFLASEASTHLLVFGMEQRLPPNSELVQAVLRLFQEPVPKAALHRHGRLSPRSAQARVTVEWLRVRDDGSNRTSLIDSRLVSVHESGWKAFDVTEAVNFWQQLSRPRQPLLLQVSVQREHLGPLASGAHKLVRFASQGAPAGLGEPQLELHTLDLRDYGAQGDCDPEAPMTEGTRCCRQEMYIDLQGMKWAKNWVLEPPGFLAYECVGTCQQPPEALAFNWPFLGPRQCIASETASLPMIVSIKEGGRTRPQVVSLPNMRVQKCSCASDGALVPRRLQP
Test: small molecules binding LEFTY2 protein – biochemical, small-molecule microarray, 635 nm fluorescence scan, primary screen (AID 1110)
Details: higher = more signal
TEST_READOUT: composite z-score

[Q] Consider the compound COc1cc2c(cc1O)C(C1CC1)N(Cc1cccc(OC(F)(F)F)c1)CC2 (centres undefined) and give its measured composite z-score.
[A] -0.116

[Q] And the next one, O=C1O[C@@H](c2ccccc2)[C@@H](c2ccccc2)N2[C@@H](c3ccc(OCCO)cc3)[C@]3(C(=O)Nc4ccc(C#CC5=CCCCC5)cc43)[C@@H](C(=O)NC[C@H](O)c3ccccc3)[C@H]12 ?
[A] 0.665

[Q] And the next one, CCOC(=O)C=Cc1cccc(C)c1O ?
[A] 0.111

[Q] And the next one, NC(=O)[C@H]1[C@@H]2C(=O)O[C@@H](c3ccccc3)[C@@H](c3ccccc3)N2[C@@H](c2ccc(OCCO)cc2)[C@]12C(=O)Nc1ccc(C#CCCO)cc12 ?
[A] -0.128

###

Tested on: Sonic hedgehog protein (Shh)
Assay: Sonic hedgehog microarray binding compounds – biochemical, small-molecule microarray, 635/667 nm fluorescence, primary screen (AID 1151);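 note: Shh protein binding to compounds spotted on small-molecule microarray slides; score combines spot fluorescence intensity with signal-to-noise across triplicate slides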
Details: 635 nm fluorescence, higher = more signal
TEST_READOUT: composite z-score
Lab note: write the figure by itself, no unit.

[Q] Notebook: pull reported composite z-score for Sonic hedgehog protein (Shh), entry C=CC[C@@H](OC(=O)Nc1ccc(OC)cc1)c1ccc(O)c(F)c1
[A] 0.174

[Q] And the next one, COC(=O)[C@@]1(Cc2ccc(OC)cc2)[C@H]2c3cc(C(=O)N(C)C)n(Cc4ccc(OC(F)(F)F)cc4)c3C[C@H]2CN1C(=O)c1ccccc1 ?
[A] -0.955

[Q] And the next one, Cc1ccc(C(C)CC(O)C2C=CC3C(=O)N(c4ccccc4)C(=O)C3N2Nc2ccccc2)o1 (centres undefined) ?
[A] -0.125

[Q] And the next one, CC(=O)NCCCC[C@@H]1NC(=O)[C@@H]2C[C@H](C(=O)NCCCCCN)[C@H](c3cccc(OCCO)c3)N2C1=O ?
[A] 1.66

###

Experiment: viability profiling in RPMI8226 myeloma cells – cell-based, resazurin fluorescence, basal, 24 h, PK04 Diversity Set, profiling panel (AID 1180);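 note: RPMI8826 multiple myeloma cell line at 5000 cells per well; test concentration not given here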
Settings: higher = more signal
Class YES: z-score at least -0.7. Class NO: z-score below -0.7.

[Q] Is reported z-score greater than or equal to -0.7 here: O=c1cccc(-c2ccc([N+](=O)[O-])cc2)o1
[A] YES

[Q] And the next one, CCCCC(CC)C(O)C1C=CC2C(=O)N(C)C(=O)C2N1Nc1ccccc1 (stereo not drawn) ?
[A] NO

[Q] And the next one, C=CCN1Cc2ccccc2[C@@H]2OC(c3ccc(OCCCO)cc3)=N[C@]2(CC=C)C1=O ?
[A] NO

[Q] And the next one, COc1ccc([Si](C)(C)[C@@H]2[C@@H](CC(=O)N(CCO)Cc3ccccc3)O[C@]3(C(=O)N(Cc4cccc(N5CCCCC5=O)c4)c4ccccc43)[C@H]2C)cc1 ?
[A] NO

[Q] And the next one, CC1CC/C=C\[C@H]2OC34C=CCN(c5ccc6ccccc6c5)C(=O)[C@H]3N(CCCO)C(=O)[C@@H]4C2C(=O)O1 (stereo partly drawn) ?
[A] YES

[Q] And the next one, O=C1NC(=O)C2C1C=CC(C(O)c1ccco1)N2Nc1ccc(Cl)cc1Cl (stereo not drawn) ?
[A] NO

[Q] And the next one, COC(=O)[C@@]1(Cc2ccc(F)cc2)[C@H]2c3cc(C(=O)N(C)C)n(Cc4ccc(OC(F)(F)F)cc4)c3C[C@H]2CN1C(=O)c1ccccc1 ?
[A] YES

[Q] And the next one, C=CCC(OC(C)=O)[C@@H]1[C@@H](N(Cc2ccc(-c3cccc(C(F)(F)F)c3)o2)C(=O)Cc2ccc(OC)cc2)c2cc(OCCCO)ccc2N1C(=O)c1ccc(-c2ccccc2)cc1 (stereo partly drawn) ?
[A] YES

###

Molecular target: Follistatin-related protein 3 (Homo sapiens) (UniProt O95633)
Sequence (O95633 whole entry, looked up): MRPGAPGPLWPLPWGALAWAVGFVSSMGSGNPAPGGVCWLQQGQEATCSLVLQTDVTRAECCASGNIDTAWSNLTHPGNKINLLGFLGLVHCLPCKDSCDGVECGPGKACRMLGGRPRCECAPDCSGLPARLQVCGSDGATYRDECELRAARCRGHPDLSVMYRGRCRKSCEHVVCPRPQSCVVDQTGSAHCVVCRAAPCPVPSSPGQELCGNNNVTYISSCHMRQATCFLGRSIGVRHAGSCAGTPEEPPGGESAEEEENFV
Experiment: compounds binding follistatin-related protein 3 – biochemical, small-molecule microarray, 635 nm fluorescence, primary screen (AID 1105);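 note: score merges emission near 667 nm and signal to noise per printed spot across three slides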
Details: FSTL3 binding, higher = more signal
Class TRUE: composite z-score at least -0.1. Class FALSE: composite z-score below -0.1.

[Q] Is reported composite z-score greater than or equal to -0.1 here: CCCNC(=O)[C@@H]1c2ccccc2C(=O)N(Cc2ccc(OC(F)(F)F)cc2)[C@H]1c1ccc(CO)cc1
[A] TRUE

[Q] And the next one, O=C(Cc1ccccc1)[C@H]1C2C=CCCC(c3ccccc3)=C2CN1Cc1ccccc1 (stereo partly specified) ?
[A] FALSE

[Q] And the next one, Cc1ccc(C(C)CC(O)C2C=CC3C(=O)N(c4ccccc4)C(=O)C3N2Nc2ccccc2)o1 (stereo unspecified) ?
[A] TRUE

[Q] And the next one, [N-]=[N+]=Nc1ccccc1C[C@]1(C(=O)O)COC(c2ccc(OCCCO)cc2)=N1 ?
[A] FALSE

[Q] And the next one, CCOC(=O)C[C@H]1[C@H](OC(=O)c2ccc(-c3ccccc3)cc2)[C@@H](NC(=O)CC(C)C)c2cc(OCCCO)ccc2N1C(=O)c1ccc2ccccc2n1 ?
[A] TRUE

[Q] And the next one, C=CCN1Cc2ccccc2[C@@H]2OC(c3ccc(OCCCO)cc3)=N[C@]2(CC=C)C1=O ?
[A] TRUE

[Q] And the next one, O=c1cccc(-c2ccc([N+](=O)[O-])cc2)o1 ?
[A] TRUE

[Q] And the next one, COCCOC(=O)N1C(=O)[C@@]2(c3cc(C#CCNC(N)=O)ccc31)[C@H](C(N)=O)[C@H]1C(=O)O[C@H](c3ccccc3)[C@H](c3ccccc3)N1[C@@H]2c1ccccc1OCCO ?
[A] TRUE

[Q] And the next one, COc1cc2c(cc1O)C(C1CC1)N(Cc1cccc(OC(F)(F)F)c1)CC2 (stereo unspecified) ?
[A] TRUE

[Q] And the next one, [N-]=[N+]=Nc1ccccc1C[C@]1(C(=O)NCCN2CCOCC2)COC(c2ccc(OCCCO)cc2)=N1 ?
[A] FALSE

[Q] And the next one, COCCCNC(=O)[C@@]1(Sc2ccc(C)cc2)CC(=O)N(C2Cc3ccccc3C2)[C@@H]1c1ccc(CO)cc1 ?
[A] FALSE

[Q] And the next one, CCCCC(CC)C(O)C1C=CC2C(=O)N(c3ccccc3)C(=O)C2N1Nc1ccccc1F (stereo unspecified) ?
[A] TRUE

[Q] And the next one, COCCOC(=O)N1C(=O)[C@@]2(c3cc(C#CC4(O)CCCCCC4)ccc31)[C@H](c1ccc(O)cc1)N1[C@H](c3ccccc3)[C@H](c3ccccc3)OC(=O)[C@H]1[C@@H]2C(=O)N1CCN(c2ncccn2)CC1 ?
[A] TRUE

[Q] And the next one, CC1=C2[C@@H](CCc3ccccc3)OB(O)C[C@@H]2[C@@H]2C(=O)N(Cc3ccccc3)C(=O)[C@@H]2C1 ?
[A] TRUE

[Q] And the next one, CC(C)(C)OC(=O)CC[C@@]1(C(=O)NCC(O)CO)N=C(c2ccc(OCCCO)cc2)O[C@@H]1c1ccccc1CN=[N+]=[N-] (stereo partly specified) ?
[A] TRUE

[Q] And the next one, Cc1ccc(S[C@]2(C(=O)NC(C)C)CC(=O)N(Cc3cc(C(F)(F)F)cc(C(F)(F)F)c3)[C@@H]2c2ccc(CO)cc2)cc1 ?
[A] FALSE

###

Tested on: glycogen synthase kinase-3 (GSK3A per assay name; protocol says GSK3B)
Assay: compounds binding glycogen synthase kinase-3 – biochemical, small-molecule microarray, 635 nm fluorescence, GSK3A, primary screen (AID 1103); note: the record names both GSK3A and GSK3B
Settings: fluorescence 635 nm, higher = more signal
TEST_READOUT: composite z-score
Lab note: write the figure by itself, no unit.

[Q] Consider the compound CC1CC/C=C\[C@H]2OC34C=CCN(C(C)(C)C)C(=O)[C@H]3N(CCCCCO)C(=O)[C@@H]4C2C(=O)O1 (some centres not stated) and give its measured composite z-score.
[A] -0.696

[Q] And the next one, COc1cc(OC)c(C(O)C2C=CC3C(=O)N(Cc4ccccc4)C(=O)C3N2n2cnnc2)cc1Br (configuration not stated) ?
[A] 1.26

[Q] And the next one, CCC1=C2CN(Cc3ccccc3)[C@@H](C(=O)Cc3ccccc3)C2C=CCC1 (some centres not stated) ?
[A] -0.439

[Q] And the next one, COC(=O)c1c(CC[C@@H](CO)NC(=O)N[C@@H](C)Cn2cc(-c3ccccn3)nn2)oc(C(C)=O)c1C(=O)OC ?
[A] 0.0696

[Q] And the next one, O=C1O[C@@H](c2ccccc2)[C@@H](c2ccccc2)N2[C@@H](c3ccc(O)cc3)[C@]3(C(=O)Nc4ccc(C#CCCO)cc43)[C@@H](C(=O)N3CCN(c4ncccn4)CC3)[C@H]12 ?
[A] 1.29

[Q] And the next one, C[N+](C)(C)CCCC[C@@H]1NC(=O)[C@@H]2C[C@H](C(=O)NCCCCCCN)[C@H](c3cccc(OCCO)c3)N2C1=O ?
[A] 1.29

[Q] And the next one, C=C(COC)/C(=C/C[C@H](OC(=O)c1ccncc1)c1ccc(CO)o1)c1cnc2ccccc2c1 ?
[A] 0.986
